Test system: T. brucei cells
EXPERIMENTAL_DETAILS: AlamarBlue cell viability / growth inhibition of T. brucei
CONDITION_NOTES: read-out: EC50, WT (WT/WT); Fig. 8d WT strain, 72 h; [Inhibitor] vs. norm response, variable slope
pEC50: −log10 of the molar value.
REPORTED_ENDPOINT: pEC50

INSERT INTO measurements (mol, target_or_test_system, data_value) VALUES
  ('Cc1ccc(C(=O)Nc2ccc(Cl)c(Cl)c2)cc1S(=O)(=O)Nc1ccc(Cl)c(Cl)c1', 'T. brucei cells', 5.24);

Sourced from paper PMC10359466
